# target-of-assay: T1, huNav157chim14-β1-β2-β3 (human)
# T1 construct: Whole entry; HEK Flp-In cells; also called huNav157 chimera 14-beta1-beta2-beta3
# assay-protocol: binding FACS, HEK Flp-In
reported-property: MFI (MFI)
Just the number in MFI, nothing appended.

Prompt line: I would be grateful if you could share the reported MFI for F0103PMP505D08 (bispecific antibody, crude periplasmic extract; also called F103275B05(N93R)-50GS-F0103505D08 bivalent ISVD) EVQLVESGGGLVQPGGSLRLSCAASGSIFNINSMAWYRRAPGKQRELVASSTNGGSTNYADSVKGRFTISRDNAKRVYLQMNSLTPEDTAVYYCRALLQPSIYDISRTYWGQGTLVTVSSGGGGSGGGGSGGGGSGGGGSGGGGSGGGGSGGGGSGGGGSGGGGSGGGGSEVQLVESGGGLVQAGGSLRLSCVTSGRTSDLSTMNWFRQAPGKEREFVARITRRGSTYYAESVKERFIISRDNAKNTVYLQMNSLKPEDTANYYCTAASEMGYHYRGQGTQVTVSSAAADYKDHDGDYKDHDIDYKDDDDKGAAHHHHHHKAAGGGGG .
Response line: 136000
